target: hErbB3.mmh (soluble monomeric human ErbB3 extracellular domain with C-terminal myc-myc-hexahistidine tag) (human, UniProt P21860 20-642); assay: SPR (Biacore), 25 C, mAb capture format
Sequence (P21860 other isoform, or with tags, fused parts or gaps): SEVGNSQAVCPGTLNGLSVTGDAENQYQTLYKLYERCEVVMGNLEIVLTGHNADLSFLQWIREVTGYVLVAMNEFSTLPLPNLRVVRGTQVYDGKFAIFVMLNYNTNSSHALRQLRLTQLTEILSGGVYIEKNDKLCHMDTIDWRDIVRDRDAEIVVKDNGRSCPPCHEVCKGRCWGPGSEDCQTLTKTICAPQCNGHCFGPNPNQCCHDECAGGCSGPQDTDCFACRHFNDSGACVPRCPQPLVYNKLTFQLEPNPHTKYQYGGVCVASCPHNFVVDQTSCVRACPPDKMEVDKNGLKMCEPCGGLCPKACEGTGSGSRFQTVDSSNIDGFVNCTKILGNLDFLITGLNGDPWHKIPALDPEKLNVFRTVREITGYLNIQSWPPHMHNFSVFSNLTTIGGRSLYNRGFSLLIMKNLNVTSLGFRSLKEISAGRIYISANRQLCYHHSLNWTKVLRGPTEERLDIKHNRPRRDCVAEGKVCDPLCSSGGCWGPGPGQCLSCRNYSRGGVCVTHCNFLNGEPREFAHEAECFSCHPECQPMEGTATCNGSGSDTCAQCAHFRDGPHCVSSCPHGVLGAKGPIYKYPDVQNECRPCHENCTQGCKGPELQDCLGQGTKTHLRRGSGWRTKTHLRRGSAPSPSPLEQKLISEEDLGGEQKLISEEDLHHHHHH
property_label: Kd (nM)
Use nM as the unit, but write only the number.

Examples with answers:
H2M1936N (antibody, V domains shown, Hybridoma chimeric antibody: human variable domains, mouse IgG2 Fc (H2M prefix)) VH: EMQLVESGGGLVQPDRSLRLSCAASGFNFDNYAIHWVRQAPGKGLEWVSGISWNSGNIGYADSVKGRFTISRDNAKNSLFLLMNSLRPDDSALYYCTRGYNWNALSPMDVWGQGTTVTVSS VL: DIQMTQSPSSLSASVGDRVTVTCRASQGISNYLAWYQQKPGKVPKLLIYAASTLQSGVPSRFSGSGSGTDFTLTISSLQPEDVASYYCQNYNSAPMTFGQGTKVEIK    6.59
H1M1828N (antibody, V domains shown, Hybridoma chimeric antibody: human variable domains, mouse constant domains (H1M prefix, mouse Fc)) VH: EVQLVESGGGLVQPGRSLRLSCAASGFTFDDYAMYWVRQAPGKGLEWVSGISWNSGSIGYADSVKGRFTISRDNAKNSLYLQMDSLRAEDTALYYCARDMMEVDLYGMDVWGQGTTVTVSS VL: DIQMTQSPSSVSASVGDRVTITCRASQDISSWLAWYQQKPGTAPKFLIYETSSLQSGVPSRFSGSGSGTDFILTISSLQPEDFATYYCQQTDSFPHTFGQGTKLEIR    0.515
H4H2102P (antibody, V domains shown, Fully human, human IgG4 Fc (H4H prefix)) VH: EVQLVESGGGLVQPGGSLRLSCAASGFTFSNYDIHWVRQATGKGLEWVSAIGPAGDTYYSDSVKGRFTISREDAKNSLYLQMSSLRAGDTAVYYCASEGIAVRPDDYYGMDVWGQGTTVTVSA VL: DIQLTQSPSFLSASVGDRVTITCWASQDITSYLAWYQKKPGKAPKLLIYAASTLQSGVPSRFSGSGSGTEFTLTISSLQPEDFAAYYCQQLNSYPLTFGGGTKVDIKR    0.0551
H4H2138P (antibody, V domains shown, Fully human, human IgG4 Fc (H4H prefix)) VH: QVQLQESGPGLVKPSQTLSLTCTVSGGSINSGGYYWSWIRQHPGKGLEWIGYISYSGNTNYNPSLKSRVTISVDTSKNQFSLTLTSVTAADTAVYYCARDSDVDTGLVDGFDVWGQGTMVTVSS VL: DIVMTQSPSSVSASVGDRVTITCRASQGVSSWLAWYQQKPGKAPKLLIYTTSSLQSGVPSRFSGSGSGTDFTLTISSLQPEDFATYYCQQSNSFPFTFGPGTKVEIK    0.0209
H4H2151P (antibody, V domains shown, Fully human, human IgG4 Fc (H4H prefix)) VH: QVQLVESGGGVVQPGRSLRLSCAASGFTFSNYGMHWVRQAPGKGLEWVARIWYDGSNKYYADSVKGRFTISRDSSKNTLYLQMNSLRAEDTAVYYCAREGEQNLDYYPLDVWGQGTTVTVSS VL: DIVMTQSPSSLSASVGDRVTITCRASQDIRNDLGWYQQKPGKAPKLLIYAASSLQTGVPSRFSGSVSGTDFTLTISSLQPEDFATYYCLQDYTYPLTFGGGTKVEIK    0.00942

**Q:** // Input: H4H2290P (antibody, V domains shown, Fully human, human IgG4 Fc (H4H prefix)) VH: EVQLLESGGGLVQPGGSLRLSCVASGFTFSSFAMSWVRQAPGKGLEWVSVISGSGGSTNHADSVRGRFTISRDNSLNTVYLQMHSLRAEDTALYYCVKAETSSSYFYYGMDVWGQGTTVTVSS VL: DIQLTQSPSFLSASVGDRVTITCWASQDISSYLAWYQQKPGKVPNLLIYGASSLQPGVPSRFSGSGSGTEFTLTISSLQPEDFATYYCQQLNNYPTFGGGTKLEIKR . Output its Kd only.
**A:** 0.115

**Q:** Identify Kd associated with the binder H4H1819N (antibody, V domains shown, Human IgG4 Fc (H4H prefix); same variable domains as H1M1819N) VH: EVQLVESGGGVVRPGGSLRLSCAASGFTFDDYAMHWVRQAPGKGLEWVAGISWNSGSIDYADSVKGRFTISRDNAKNSLYLQMNSLRAGDTALYYCAKDILDLDYYGLDVWGQGTTVTVSS VL: DIQMTQSPSSLSASVGDRVTITCRASQDISSYLAWYQQKPGKVPNLLIYDASSLQSGVPSRFSGSGSGTDFTLTLSSLQPEDFASYYCQNYNSAPYTFGQGTKLEIK
**A:** 0.0435

**Q:** Give the reported Kd for this binder. H4H2098P (antibody, V domains shown, Fully human, human IgG4 Fc (H4H prefix)) VH: QVQLVESGGGVVQPGRSLRLSCAASGFTFSSFGMHWVRQAPGKGLEWVAVIWYVEINKYHADSVKGRFTISRDDSKNTVYLQMNSLRAEDTAVYYCARDWNDGDYGMDVWGQGTTVTVSS VL: DIQLTQSPSFLSASVGDRVTITCWASQGISSFLAWYQQKAGKAPRLLIYAASTLQTGVPSRFSGSGSGTEFTLTISSLQPGDFATYHCQQLNSYPYTFGQGTKLEIKR
**A:** 0.069

**Q:** Output measured Kd for this item: H1M1940N (antibody, V domains shown, Hybridoma chimeric antibody: human variable domains, mouse constant domains (H1M prefix, mouse Fc)) VH: QVQVVESGGGVVQPGRSLRLSCAASGFTFSDYGMHWVRQAPGKGLEWVAIISYDGSNKYYADSVKGRFTVSRDNSKNTLYLQLDSLRPEDAAVFYCAREGAFNLDYYAMDVWGQGTTVTVSS VL: AIQMTQSPSSLSASVGDRVTITCRASQDIRNDLGWYQQKPGKAPNLLIYAASSLQSGVPSRFSGSGSGTDFTLTISSLQPEDFATYYCLQDSNYPLTFGGGTKVEIK
**A:** 0.477

**Q:** Give Kd for H4H2084P (antibody, V domains shown, Fully human, human IgG4 Fc (H4H prefix)) VH: QVQLVESGGGVVQSGKSLRLSCVASGFTFSNYGMHWVRQTPGKGLEWVARIWFDGTNKYYTDSVKGRFTLSRDSSKNTLYLQMNSLRAEDTAVYFCAREESLELDHYVMDVWGQGTTVTVSS VL: AIQMTQSPSSLSASVGDRVTITCRASQDIRDDLGWFQQKPGKAPNLLIYAASSLQSGVPSRFSGSGSGTDFTLTISSLQPEDFATYYCLQDYNYPLTFGGGTKVEIKR
**A:** 0.0239

# credit: patent US20140072563A1
